- Tested on: hsp-6::gfp reporter (UPR^mt)
- Type: in vivo, Caenorhabditis elegans
- condition: 68 µM, 9-TB at 17 μM
result-type: UPR^mt activation (hsp-6::gfp reporter)

{"molecule": "CN(C)c1ccc(O)c2c1C[C@H]1C[C@H]3[C@H](N(C)C)C(O)=C(C(N)=O)C(=O)[C@@]3(O)C(O)=C1C2=O [minocycline, reference compound]", "assay-result": "did not activate"}
{"molecule": "Cc1c2c(c(O)c3c(O)cccc13)C(=O)[C@]1(O)C(=O)C(C(N)=O)=C(O)[C@@H](N(C)C)[C@@H]1C2 [ATc, anhydrotetracycline]", "assay-result": "strongest activators"}
{"molecule": "CN(C)c1cc(NC(=O)CNC(C)(C)C)c(O)c2c1C[C@H]1C[C@H]3[C@H](N(C)C)C(O)=C(C(N)=O)C(=O)[C@@]3(O)C(O)=C1C2=O [Tygacil ™, reference compound]", "assay-result": "did not activate"}
{"molecule": "C[C@H]1c2ccc(C(C)(C)C)c(O)c2C(O)=C2C(=O)[C@]3(O)C(O)=C(C(N)=O)C(=O)[C@@H](N(C)C)[C@@H]3[C@@H](O)[C@@H]21", "assay-result": "strongest activators"}

Provenance of the data: patent US20240299420A1
